These records show Ki for Sodium-dependent dopamine transporter (Rattus norvegicus).
Answer by giving the amount and then stating its unit.

# molecule-smiles, target, Ki
data = [
    ("CN(C)Cc1cc(F)ccc1Sc1ccc(Cl)cc1N", "Sodium-dependent dopamine transporter (Rattus norvegicus)", "1840 nM"),
]

For each entry beneath this line, provide reported Ki.
1. Cc1ccc(Sc2ccc(F)cc2CN(C)C)c(N)c1
2. CN(C)Cc1ccccc1Oc1ccc(F)cc1N
3. Cc1ccc(Oc2ccc(F)cc2CN(C)C)c(N)c1
4. CN(C)Cc1cc(Cl)ccc1Oc1ccc(F)cc1N

1. 3650 nM
2. 4360 nM
3. 2790 nM
4. 2530 nM

* * *

molecular target: Norepinephrine transporter (Rattus norvegicus, UniProt Q9WTR4); test: Displacement of [3H]nisoxetine from NET in rat brain; assay type: tissue-based
Sequence (Q9WTR4 whole entry): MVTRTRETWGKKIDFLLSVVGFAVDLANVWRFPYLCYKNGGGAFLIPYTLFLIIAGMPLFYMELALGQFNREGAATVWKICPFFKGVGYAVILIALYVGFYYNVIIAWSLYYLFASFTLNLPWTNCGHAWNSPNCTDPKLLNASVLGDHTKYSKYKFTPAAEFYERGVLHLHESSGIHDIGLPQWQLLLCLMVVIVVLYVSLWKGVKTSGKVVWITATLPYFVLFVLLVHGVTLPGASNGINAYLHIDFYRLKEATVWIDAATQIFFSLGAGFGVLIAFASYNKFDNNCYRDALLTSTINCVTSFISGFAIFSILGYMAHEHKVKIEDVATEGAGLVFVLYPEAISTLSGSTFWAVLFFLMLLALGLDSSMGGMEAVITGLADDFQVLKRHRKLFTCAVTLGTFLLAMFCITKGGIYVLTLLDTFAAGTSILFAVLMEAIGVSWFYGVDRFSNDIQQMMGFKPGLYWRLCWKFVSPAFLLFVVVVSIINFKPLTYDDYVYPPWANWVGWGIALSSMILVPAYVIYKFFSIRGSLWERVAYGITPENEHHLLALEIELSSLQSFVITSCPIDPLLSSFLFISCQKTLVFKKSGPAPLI
measurement-kind: pKi
One number for each entry, as −log10 of the molar value.

# molecule-smiles, pKi
measured = [
    ("Cc1ccc(Sc2ccc(F)cc2CN(C)C)c(N)c1", 5.98),
    ("CN(C)Cc1ccccc1Oc1ccc(F)cc1N", 5.97),
]

# ---- query compound ----
Recorded pKi of CN(C)Cc1cc(F)ccc1Sc1ccc(Cl)cc1N , please. 6.04

* * *

target: Sodium-dependent serotonin transporter (Rattus norvegicus, UniProt P31652); test: Displacement of [3H]paroxetine from SERT in rat brain; format: tissue-based
Sequence (P31652 whole entry): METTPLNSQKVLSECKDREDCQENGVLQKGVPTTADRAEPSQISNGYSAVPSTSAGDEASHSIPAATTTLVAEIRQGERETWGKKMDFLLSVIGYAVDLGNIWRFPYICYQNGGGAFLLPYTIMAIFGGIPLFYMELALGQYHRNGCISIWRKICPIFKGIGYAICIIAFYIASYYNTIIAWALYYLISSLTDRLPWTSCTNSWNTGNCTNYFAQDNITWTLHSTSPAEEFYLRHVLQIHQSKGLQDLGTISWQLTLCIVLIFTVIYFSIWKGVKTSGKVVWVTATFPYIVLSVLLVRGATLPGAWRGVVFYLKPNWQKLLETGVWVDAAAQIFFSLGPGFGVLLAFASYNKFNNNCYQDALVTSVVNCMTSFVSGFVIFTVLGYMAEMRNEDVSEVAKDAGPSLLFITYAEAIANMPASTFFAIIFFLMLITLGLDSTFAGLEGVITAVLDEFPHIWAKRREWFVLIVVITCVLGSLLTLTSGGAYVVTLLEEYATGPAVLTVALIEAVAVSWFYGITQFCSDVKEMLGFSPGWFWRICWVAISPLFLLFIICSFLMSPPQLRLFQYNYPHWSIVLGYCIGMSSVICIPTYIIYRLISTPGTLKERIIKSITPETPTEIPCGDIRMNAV
measurement-kind: pKi
One number for each entry, as −log10 of the molar value.

As a guide, the following entries are already answered.
# molecule-smiles, pKi
rows = [
    ("CN(C)Cc1cc(F)ccc1Sc1ccc(Cl)cc1N", 9.46),
    ("Cc1ccc(Oc2ccc(F)cc2CN(C)C)c(N)c1", 8.15),
    ("CN(C)Cc1cc(F)ccc1Oc1ccc(C#N)cc1N", 8.54),
    ("Cc1ccc(Sc2ccc(F)cc2CN(C)C)c(N)c1", 9.57),
    ("Cc1ccc(Sc2ccccc2CN(C)C)c(N)c1", 9.21),
]

# ---- query molecule ----
Recorded pKi of CN(C)Cc1ccccc1Oc1ccc(F)cc1N , please. 7.87
